The entries below are paired with their reported self-splicing fitness (ln).
# TEST NAME: self-splicing fitness, log relative to wild type (ln ratio); higher = more splicing; Tetrahymena group I intron in knt gene, E. coli kanamycin selection, DiMSum; sequences stand for … in CUCUCU…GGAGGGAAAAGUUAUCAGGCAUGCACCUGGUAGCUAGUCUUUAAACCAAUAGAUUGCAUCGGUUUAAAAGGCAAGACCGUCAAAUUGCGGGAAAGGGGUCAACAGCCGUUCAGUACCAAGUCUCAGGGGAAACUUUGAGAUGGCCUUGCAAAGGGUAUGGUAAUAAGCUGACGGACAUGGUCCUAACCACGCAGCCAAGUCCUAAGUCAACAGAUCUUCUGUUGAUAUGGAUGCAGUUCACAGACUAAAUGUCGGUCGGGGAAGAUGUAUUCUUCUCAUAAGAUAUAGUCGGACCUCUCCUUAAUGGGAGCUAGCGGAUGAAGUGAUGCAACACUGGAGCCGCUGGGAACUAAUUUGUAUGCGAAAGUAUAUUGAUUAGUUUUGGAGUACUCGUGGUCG;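 note: selection with 25 µg/mL kanamycin versus none on LB agar overnight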
# CONDITION PARAMETERS: 30 °C
Give a plain numeric answer without units written out.

See these solved cases before continuing.
biopolymer_sequence=UUGUAGCAAUAUUACGCUCC value_kind="self-splicing fitness (ln)" experimental_value=-2.12
biopolymer_sequence=GACCAGCAAUAUUACGGGGG value_kind="self-splicing fitness (ln)" experimental_value=-1.92
biopolymer_sequence=AACGAGCAAUAUUACGUCUC value_kind="self-splicing fitness (ln)" experimental_value=-3.67
biopolymer_sequence=CGCUAGCAAUAUUACGCGGC value_kind="self-splicing fitness (ln)" experimental_value=-3.25

Please list self-splicing fitness (ln) recorded for the sequence `GAAAAGCAAUAUUACGUUGU`
-4.51

# return recorded self-splicing fitness (ln) for input `CACCAGCAAUAUUACGCGCG`
-0.00123

Supply measured self-splicing fitness (ln) of `UCCUAGCAAUAUUACGAUUG` in your reply.
-2.56

In one line, give reported self-splicing fitness (ln) of the entry `GACAAGCAAUAUUACGCACC` .
-1.43

====

# TEST NAME: self-splicing fitness, log relative to wild type (ln ratio); higher = more splicing; Tetrahymena group I intron in knt gene, E. coli kanamycin selection, DiMSum; sequences stand for … in CUCUCU…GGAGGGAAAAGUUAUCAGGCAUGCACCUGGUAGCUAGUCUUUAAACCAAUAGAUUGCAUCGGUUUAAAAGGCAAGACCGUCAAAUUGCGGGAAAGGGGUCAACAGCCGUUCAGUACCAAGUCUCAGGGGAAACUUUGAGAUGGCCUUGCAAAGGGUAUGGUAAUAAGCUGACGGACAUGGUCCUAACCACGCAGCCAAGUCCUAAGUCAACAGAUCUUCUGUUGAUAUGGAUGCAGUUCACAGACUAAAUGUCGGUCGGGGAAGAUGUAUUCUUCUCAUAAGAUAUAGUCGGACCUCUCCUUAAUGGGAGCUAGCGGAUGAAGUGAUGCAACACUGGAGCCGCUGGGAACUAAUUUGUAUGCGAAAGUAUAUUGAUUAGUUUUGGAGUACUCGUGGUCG
# CONDITION PARAMETERS: 30 °C
VALUE KIND: self-splicing fitness (ln)
A bare number is all that is needed in reply.

Example entries and their recorded answers appear below.
biopolymer_sequence=AAUGAGCAAUAUUACGGAUA experimental_value=-1.86
biopolymer_sequence=UAGCAGCAAUAUUACGGGCA experimental_value=-0.608
biopolymer_sequence=UGUCAGCAAUAUUACGUUGU experimental_value=-4.25
biopolymer_sequence=GUACAGCAAUAUUACGGUGG experimental_value=-2.22
biopolymer_sequence=AUGCAGCAAUAUUACGUUUU experimental_value=-2.8
biopolymer_sequence=ACACAGCAAUAUUACGUGAG experimental_value=-1.02
biopolymer_sequence=CUUUAGCAAUAUUACGGGCG experimental_value=-0.935
biopolymer_sequence=AGAUAGCAAUAUUACGCCUC experimental_value=-3.23

Answer with reported self-splicing fitness (ln) of `ACUUAGCAAUAUUACGAGCU`
-0.379

Report self-splicing fitness (ln) for `ACUAAGCAAUAUUACGGUAA`
-1.56

Given the sequence `GCAUAGCAAUAUUACGAGAG` , write its reported self-splicing fitness (ln).
-2.71

Kindly indicate its recorded self-splicing fitness (ln). Item: `AGUGAGCAAUAUUACGGCCC`
-1.16

====

# TEST NAME: self-splicing fitness, log relative to wild type (ln ratio); higher = more splicing; Tetrahymena group I intron in knt gene, E. coli kanamycin selection, DiMSum; sequences stand for … in CUCUCU…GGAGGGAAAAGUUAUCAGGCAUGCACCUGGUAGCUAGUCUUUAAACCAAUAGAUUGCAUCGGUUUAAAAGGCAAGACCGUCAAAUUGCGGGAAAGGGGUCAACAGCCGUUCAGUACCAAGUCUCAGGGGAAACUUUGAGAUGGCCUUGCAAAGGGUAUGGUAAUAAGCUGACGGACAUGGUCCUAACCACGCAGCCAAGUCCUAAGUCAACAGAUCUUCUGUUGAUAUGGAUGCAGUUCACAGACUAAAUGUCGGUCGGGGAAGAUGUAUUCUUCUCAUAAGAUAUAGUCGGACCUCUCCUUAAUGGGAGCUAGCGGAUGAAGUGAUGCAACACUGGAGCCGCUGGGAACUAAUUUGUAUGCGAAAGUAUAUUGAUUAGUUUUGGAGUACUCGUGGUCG
# CONDITION PARAMETERS: 30 °C
VALUE KIND: self-splicing fitness (ln)

biopolymer_sequence=GGAUAGCAAUAUUACGGUUU value_kind="self-splicing fitness (ln)" experimental_value=-1.22

Name the recorded self-splicing fitness (ln) of the sequence listed here: `UUACAGCAAUAUUACGUCGU`
-3.81

Given `CCAUAGCAAUAUUACGCGUG` , respond with its self-splicing fitness (ln).
-2.23

Quick one: give measured self-splicing fitness (ln) for `CGAAAGCAAUAUUACGCUAU`
-4.13

Report measured self-splicing fitness (ln); entry is `AAGAAGCAAUAUUACGCGUA`
-1.39

Indicate its recorded self-splicing fitness (ln); the sequence in question is `GCGUAGCAAUAUUACGUGAA`
-2.92

Determine its reported self-splicing fitness (ln): `GUGCAGCAAUAUUACGCUCG`
-0.5

Return self-splicing fitness (ln) (reported value) for this sequence: `GCGCAGCAAUAUUACGCGAG`
-1.66

Report self-splicing fitness (ln), nothing else, for this sequence: `UUCAAGCAAUAUUACGUCAA`
-0.772

Tell me self-splicing fitness (ln) reported for `AGCGAGCAAUAUUACGUGCU`
-4.05

Return self-splicing fitness (ln) for the following sequence: `AAGGAGCAAUAUUACGCGCU`
-3.5

Please give the documented self-splicing fitness (ln) of `UGUUAGCAAUAUUACGCUUU`
-2.85

====

# TEST NAME: self-splicing fitness, log relative to wild type (ln ratio); higher = more splicing; Tetrahymena group I intron in knt gene, E. coli kanamycin selection, DiMSum; sequences stand for … in CUCUCU…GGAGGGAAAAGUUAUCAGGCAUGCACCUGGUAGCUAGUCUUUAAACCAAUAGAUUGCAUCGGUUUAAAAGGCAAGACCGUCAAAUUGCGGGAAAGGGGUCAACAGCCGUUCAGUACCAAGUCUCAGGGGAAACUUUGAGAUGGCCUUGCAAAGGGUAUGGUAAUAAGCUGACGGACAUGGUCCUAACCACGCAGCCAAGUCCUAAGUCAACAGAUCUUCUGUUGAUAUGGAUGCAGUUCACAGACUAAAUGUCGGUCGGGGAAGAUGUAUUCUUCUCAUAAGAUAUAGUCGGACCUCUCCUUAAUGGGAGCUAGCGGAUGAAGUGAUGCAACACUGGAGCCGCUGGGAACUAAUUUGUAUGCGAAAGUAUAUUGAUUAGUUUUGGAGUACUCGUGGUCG
# CONDITION PARAMETERS: 37 °C
VALUE KIND: self-splicing fitness (ln)
A bare number is all that is needed in reply.

biopolymer_sequence=UGUCAGCAAUAUUACGUCGA experimental_value=-0.0273

We next turn to a different sequence, shown below.
Check the records and state self-splicing fitness (ln) for `UAGUAGCAAUAUUACGUGUU`
-1.95

====

# TEST NAME: self-splicing fitness, log relative to wild type (ln ratio); higher = more splicing; Tetrahymena group I intron in knt gene, E. coli kanamycin selection, DiMSum; sequences stand for … in CUCUCU…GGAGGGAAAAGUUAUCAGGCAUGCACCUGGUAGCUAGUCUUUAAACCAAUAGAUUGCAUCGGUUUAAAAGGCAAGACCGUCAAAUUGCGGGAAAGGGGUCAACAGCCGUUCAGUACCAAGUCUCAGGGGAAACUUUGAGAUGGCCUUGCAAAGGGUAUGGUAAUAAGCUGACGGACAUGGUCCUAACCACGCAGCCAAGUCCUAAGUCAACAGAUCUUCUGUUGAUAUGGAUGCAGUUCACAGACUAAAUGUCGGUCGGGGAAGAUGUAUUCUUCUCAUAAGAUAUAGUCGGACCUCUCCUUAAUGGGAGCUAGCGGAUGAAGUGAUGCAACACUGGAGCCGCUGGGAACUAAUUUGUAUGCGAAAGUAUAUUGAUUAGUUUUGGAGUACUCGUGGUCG
# CONDITION PARAMETERS: 37 °C
VALUE KIND: self-splicing fitness (ln)
// return just the number, without any unit appended

Reference set, count: 5
biopolymer_sequence=GCGGAGCAAUAUUACGGUUU experimental_value=-2.53
biopolymer_sequence=GAUAAGCAAUAUUACGCGGG experimental_value=-2.34
biopolymer_sequence=ACCAAGCAAUAUUACGGUCA experimental_value=-0.9
biopolymer_sequence=GUAAAGCAAUAUUACGGAGC experimental_value=-1.71
biopolymer_sequence=CACGAGCAAUAUUACGUCAA experimental_value=-2.13

Answer with reported self-splicing fitness (ln) of `UUACAGCAAUAUUACGCUCU`
-0.47
